Reference for the values: PubChem BioAssay AID1159580

assay: chemical genetic growth profiling, strain panel (AID 1159580);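 note: tested at 20 µM; growth read once vehicle control cultures reached saturation at 30 °C; 1 = growth at the plate median or of vehicle wells; lower values mean less growth of the strain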; conditions: S. cerevisiae deletion strains, growth OD, locus YBR009C, strain hhf1
Screen size: about 5,500 compounds; about 2,000 (36%) were called active. Inconclusive results (about 18%) are left out. Cut-off read from the data, not from the text of the source: active = normalized growth mostly below about 0.91 (no sharp cut-off); inconclusive = no clear call, values can overlap the other calls; inactive = mostly above about 0.92. The list shows a part of the results.
Possible outcomes: y (active), n (inactive)

c1ccc([C@H]2CN3CCSC3=N2)cc1 | n
CC(=O)OCC1=C(C(=O)O)N2C(=O)[C@@H](NC(=O)CCCC(N)C(=O)O)C2SC1 (stereo partly specified) | n
CC(=O)Oc1ccccc1C(=O)O | n
O=c1[nH]cnc2c1ncn2C1O[C@H](CO)[C@@H](O)[C@H]1O (stereo partly specified) | n
CN1CCN(CCC=C2c3ccccc3Sc3ccc(S(=O)(=O)N(C)C)cc32)CC1 | n
CC(=O)[O][Hg][c]1ccccc1 | y

###

assay: chemical genetic growth profiling, strain panel (AID 1159580);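 note: tested at 20 µM; growth read once vehicle control cultures reached saturation at 30 °C; 1 = growth at the plate median or of vehicle wells; lower values mean less growth of the strain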; conditions: S. cerevisiae deletion strains, growth OD, locus YMR231W, strain pep5, active compounds read low
About 2,000 (36%) of roughly 5,500 compounds were called active. Not shown: some 18% with an inconclusive outcome. This is one part of the list. Where a SMILES comes first, the peptide text is derived from it. Side-chain parts run from the residue outwards. [ ]: non-standard residue; d: D form. The star is where a group is joined. X1 = CCC(C)C(N)C1=NC(C(=O)*)CS1; Orn = NCCC[CH](N)C(=O)O
MEASURED METRIC: normalized growth

NCCc1c[nH]c2ccccc12 | 0.97 (inactive)
CCCCc1nc(Cl)c(CO)n1Cc1ccc(-c2ccccc2-c2nn[nH]n2)cc1 | 0.982 (inactive)
CCOc1cccc(C(=O)c2ccc(O)c(O)c2O)c1 | 0.826 (active)
CC1=NN(c2ccccc2)C(=O)C1 | 0.984 (inactive)
CCCc1nc2c(C)cc(-c3nc4ccccc4n3C)cc2n1Cc1ccc(-c2ccccc2C(=O)O)cc1 | 1.02 (inactive)
COc1cc(-c2oc3cc(O)ccc3c(=O)c2O)ccc1O | 0.906 (active)
CCCCCCCCCCCCCCCCCCOCC(O)CO (stereo not given) | 0.993 (inactive)
CC(=O)Oc1cc2c(c(C)c1OC(C)=O)CC1OC13C2(C)CCC1(C)C2CC(C)(C(=O)O)CCC2(C)CCC13C (stereo not given) | 1.01 (inactive)
COC(=O)[C@]1(C)CC[C@]2(C)CC[C@]3(C)C4=CC=C5C(=CC(=O)C(O)=C5C)[C@]4(C)CC[C@@]3(C)[C@@H]2C1 | 0.863 (active)
COC1(C)CCC2OC2(C)CCC2C1CC2(C)C (stereo not given) | 1 (inactive)
CN(C)C(=N)N=C(N)N | 1 (inactive)
CCC1(CC)C(=O)C=CNC1=O | 0.998 (inactive)
CC[C@@H](CO)NC(=O)[C@@H]1C=C2c3cccc4[nH]cc(c34)C[C@H]2N(C)C1 | 0.992 (inactive)
CC1=C(O)C(=O)C=C2C1=CC=C1[C@@]2(C)CC[C@@]2(C)[C@@H]3C[C@](C)(C(=O)O)CC[C@]3(C)CC[C@]12C | 0.365 (active)
CCC(C)C(N)C1=NC(C(=O)NC(CC(C)C)C(=O)NC(CCC(=O)O)C(=O)NC(C(=O)NCCCCC2NC(=O)C(CC(N)=O)NC(=O)C(CC(=O)O)NC(=O)C(Cc3cnc[nH]3)NC(=O)C(Cc3ccccc3)NC(=O)C(C(C)CC)NC(=O)C(CCCN)NC2=O)C(C)CC)CS1 (stereo not drawn) (cyclo(DNK([Ile-Glu-Leu-X1])[Orn]IFH); configuration not given here) | 0.996 (inactive)
O=c1c(O)c(-c2ccc(O)c(O)c2)oc2cc(O)ccc12 | 0.987 (inactive)
O=C(O)c1cc(=O)c2c(Cl)cc(Cl)cc2[nH]1 | 1.01 (inactive)
CC[C@H]1OC(=O)[C@H](C)[C@@H](O[C@H]2C[C@@](C)(OC)[C@@H](O)[C@H](C)O2)[C@H](C)[C@@H](O[C@@H]2O[C@H](C)C[C@H](N(C)C)[C@H]2O)[C@](C)(O)C[C@@H](C)[C@@H]2N[C@@H](COCCOC)O[C@H]([C@H]2C)[C@]1(C)O | 0.993 (inactive)
COc1ccc(-c2oc3ccccc3c(=O)c2O)cc1OC | 0.555 (active)
O=c1[nH]cnc2c1ncn2C1O[C@H](CO)[C@@H](O)[C@H]1O (stereo not given in full) | 0.977 (inactive)

###

experiment: chemical genetic growth profiling, strain panel (AID 1159580);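 note: tested at 20 µM; growth read once vehicle control cultures reached saturation at 30 °C; 1 = growth at the plate median or of vehicle wells; lower values mean less growth of the strain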; settings: S. cerevisiae deletion strains, growth OD, locus YLR039C, strain RIC1, active compounds read low
About 2,000 (36%) of roughly 5,500 compounds were called active. Another 18% or so got no clear call; they are omitted. The list shows a part of the results. Where a SMILES comes first, the peptide text is derived from it. Bridges are numbered along the chain shown (N, C = ends). [ ]: non-standard residue; d: D form. The star is where a group is joined. Octanoyl(6-Me) = CCC(C)CCCCC(=O)*; Dab = NCC[CH](N)C(=O)O
# note: boundary value 1 maps to No; normalized growth below it maps to Yes

O=C1CCCN1c1ccc(Cl)c(Cl)c1 | Yes
COc1cccc(NC(N)=S)c1 | No
CC(=O)c1cc2cc(Br)ccc2oc1=O | Yes
COc1cccc(Nc2nc3ccccc3s2)c1 | Yes
CC(=O)NO | Yes
CC(C)(C)C1=NN(c2ccccc2)C(=O)C1 | Yes
CCC(C)CCCCC(=O)NC(CCN)C(=O)NC(C(=O)NC(CCN)C(=O)NC1CCNC(=O)C(C(C)O)NC(=O)C(CCN)NC(=O)C(CCN)NC(=O)C(CC(C)C)NC(=O)C(Cc2ccccc2)NC(=O)C(CCN)NC1=O)C(C)O (configuration not stated) ({Octanoyl(6-Me)}-[Dab]T[Dab][Dab][Dab]FL[Dab][Dab]T; lactam 4-C; configuration not given here) | No
CC(=O)O[C@@H]1CC[C@]2(C)C3CC[C@]4(C)C(=O)CCC4C3CC[C@H]2C1 (some centres not stated) | Yes
N#C/C(=C\N(CCS(=O)(=O)c1ccc(Cl)cc1)Cc1cccs1)S(=O)(=O)c1ccc(Cl)cc1 | No
COC(=O)c1ccccc1CSc1nccc(C(F)(F)F)n1 | Yes
CN1CCN(CC(=O)N2c3ccccc3C(=O)Nc3cccnc32)CC1 | No
CC1=CC(=O)C2=C(C)CC(O)C3C(C)C(=O)OC3C12 (configuration not stated) | No
CC(=O)Nc1cc2ccccc2oc1=O | No
CC1(C)C(=O)[C@@H]2C[C@@]3(O)C4=CC(=O)O[C@@H](c5ccoc5)[C@]4(C)CCC3[C@@](C)(C2=O)[C@H]1CC(=O)O (some centres not stated) | No

###

assay: chemical genetic growth profiling, strain panel (AID 1159580);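 note: tested at 20 µM; growth read once vehicle control cultures reached saturation at 30 °C; 1 = growth at the plate median or of vehicle wells; lower values mean less growth of the strain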; conditions: S. cerevisiae deletion strains, growth OD, locus YGL253W, strain hxk2, active compounds read low
Out of some 5,500 compounds screened, about 2,000 (36%) were called active. Inconclusive results (about 18%) are left out. This is one part of the list. Where a SMILES comes first, the peptide text is derived from it. Bridges are numbered along the chain shown (N, C = ends). Side-chain parts run from the residue outwards. [ ]: non-standard residue; d: D form. The star is where a group is joined. Octanoyl(6-Me) = CCC(C)CCCCC(=O)*; X1 = CCC(C)C(N)C1=NC(C(=O)*)CS1; Orn = NCCC[CH](N)C(=O)O; Dab = NCC[CH](N)C(=O)O
MEASURED METRIC: normalized growth

Cc1cc(C(C)(C)C)c(O)c(C)c1CC1=NCCN1 | 1.01
CCC(C)C(N)C1=NC(C(=O)NC(CC(C)C)C(=O)NC(CCC(=O)O)C(=O)NC(C(=O)NCCCCC2NC(=O)C(CC(N)=O)NC(=O)C(CC(=O)O)NC(=O)C(Cc3cnc[nH]3)NC(=O)C(Cc3ccccc3)NC(=O)C(C(C)CC)NC(=O)C(CCCN)NC2=O)C(C)CC)CS1 (stereo not drawn) (cyclo(DNK([Ile-Glu-Leu-X1])[Orn]IFH); configuration not given here) | 0.993
CCC(C)CCCCC(=O)NC(CCN)C(=O)NC(C(=O)NC(CCN)C(=O)NC1CCNC(=O)C(C(C)O)NC(=O)C(CCN)NC(=O)C(CCN)NC(=O)C(CC(C)C)NC(=O)C(Cc2ccccc2)NC(=O)C(CCN)NC1=O)C(C)O (centres undefined) ({Octanoyl(6-Me)}-[Dab]T[Dab][Dab][Dab]FL[Dab][Dab]T; lactam 4-C; configuration not given here) | 1.01
CN(C)C(=N)N=C(N)N | 1.04
Cc1onc(-c2ccccc2)c1C(=O)NC1C(=O)N2[C@@H]1SC(C)(C)[C@@H]2C(=O)O (some centres undefined) | 1.02
C[C@]12CCC(=O)C=C1CCC1C2[C@@H](O)C[C@@]2(C)C1CC[C@]2(O)C(=O)COC(=O)CCC(=O)O (some centres undefined) | 0.99
CC(=O)OCC1=C(C(=O)O)N2C(=O)[C@@H](NC(=O)CCCC(N)C(=O)O)C2SC1 (some centres undefined) | 0.982
CC1(C)S[C@@H]2[C@H](NC(=O)[C@H](C(=O)O)c3cccs3)C(=O)N2[C@H]1C(=O)O | 0.998
COc1cc(NS(=O)(=O)c2ccc(N)cc2)ncn1 | 0.979
CC1(C)S[C@@H]2[C@H](NC(=O)Cc3ccccc3)C(=O)N2[C@H]1C(=O)O | 1.04
CC(=O)OCC(=O)[C@@]1(O)CCC2C3CCC4=CC(=O)CC[C@]4(C)C3[C@@H](O)C[C@@]21C (some centres undefined) | 1.02
COc1cc2cc3c4cc(OC)c(OC)cc4cc[n+]3c(C)c2cc1OC | 1.03
COc1ccc([C@H]2COc3c(ccc(O)c3OC)C2)c(OC)c1O | 0.997
CC(=O)CC1CCCCN1 (centres undefined) | 1.02
Cc1cc(C(C)(C)C)cc(C)c1CC1=NCCN1 | 0.977
CC1(C)C=Cc2cc3ccc(=O)oc3cc2O1 | 0.971
Cc1onc(-c2c(Cl)cccc2Cl)c1C(=O)N[C@@H]1C(=O)N2[C@@H]1SC(C)(C)[C@@H]2C(=O)O | 1.02
NC(N)=NC(N)=Nc1ccccc1 | 1.01
C1CCC(C(CC2CCCCN2)C2CCCCC2)CC1 (centres undefined) | 0.973
